Target: YFP-AtGALS1 (β-1,4-galactan synthase 1) (Arabidopsis thaliana)
Sequence (O22807 1-496): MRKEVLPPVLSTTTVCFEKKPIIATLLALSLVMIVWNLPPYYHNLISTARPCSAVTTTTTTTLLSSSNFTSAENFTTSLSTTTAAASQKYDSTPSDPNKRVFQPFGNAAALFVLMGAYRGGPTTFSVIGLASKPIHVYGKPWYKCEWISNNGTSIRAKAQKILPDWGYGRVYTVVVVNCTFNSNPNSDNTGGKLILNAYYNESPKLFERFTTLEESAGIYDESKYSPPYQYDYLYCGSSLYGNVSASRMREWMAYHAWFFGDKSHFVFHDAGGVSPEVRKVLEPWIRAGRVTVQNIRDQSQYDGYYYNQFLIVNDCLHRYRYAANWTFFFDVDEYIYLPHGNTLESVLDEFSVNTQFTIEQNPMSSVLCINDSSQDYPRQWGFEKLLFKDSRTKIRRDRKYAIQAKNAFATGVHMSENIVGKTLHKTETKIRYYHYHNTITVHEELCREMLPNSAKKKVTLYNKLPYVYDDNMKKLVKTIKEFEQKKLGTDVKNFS
Assay: biochemical
Format: binding
Conditions: read-out: Kd (± 68% confidence)
quantity-kind: Kd (µM)
State just the number; it will be interpreted in µM.

Inquiry: Lab request: please report Kd under test system YFP-AtGALS1 (β-1,4-galactan synthase 1) (Arabidopsis thaliana) for O=c1ccn([C@@H]2O[C@H](COP(=O)(O)OP(=O)(O)O[C@H]3OC[C@H](O)[C@H](O)[C@H]3O)[C@@H](O)[C@H]2O)c(=O)[nH]1 [UDP-Arap, UDP-β-L-Arap]
Reply text: 960
